assay: folding enthalpy; higher = less favourable; fluorescence melt of hairpins on a sequencing array, two-state fit; details: sodium 0.088 M
We begin with a simple list: items and their reported folding enthalpy.
Enter your answer as a number in kcal/mol; do not include the unit.

// worked examples, folding enthalpy included
>  <SEQUENCE_TEXT>
GCCAAGGAAACTTGGC ((((((....))))))

>  <EXPERIMENTAL_VALUE>
-38.2

$$$$
>  <SEQUENCE_TEXT>
GACAACGAAAGTTAGTC ((((((....))).)))

>  <EXPERIMENTAL_VALUE>
-24.7

$$$$
>  <SEQUENCE_TEXT>
GATCTTCTGAAGATC ((((((...))))))

>  <EXPERIMENTAL_VALUE>
-37

$$$$

Proceed to the following item.
Q: Give the measured folding enthalpy for GCTCGAGGAAACTCGGGC ((.((((....)))).))
Result: -38.9
